Let's look at some compounds and their measured inhibition at 0.05 µM.
testTarget: human ANO6 (variant 5) (Homo sapiens, UniProt Q4KMQ2)
Construct: expressed in transfected cells; host or cells: Fischer rat thyroid (FRT) cells
Sequence (Q4KMQ2 1-931 isoform Q4KMQ2-2): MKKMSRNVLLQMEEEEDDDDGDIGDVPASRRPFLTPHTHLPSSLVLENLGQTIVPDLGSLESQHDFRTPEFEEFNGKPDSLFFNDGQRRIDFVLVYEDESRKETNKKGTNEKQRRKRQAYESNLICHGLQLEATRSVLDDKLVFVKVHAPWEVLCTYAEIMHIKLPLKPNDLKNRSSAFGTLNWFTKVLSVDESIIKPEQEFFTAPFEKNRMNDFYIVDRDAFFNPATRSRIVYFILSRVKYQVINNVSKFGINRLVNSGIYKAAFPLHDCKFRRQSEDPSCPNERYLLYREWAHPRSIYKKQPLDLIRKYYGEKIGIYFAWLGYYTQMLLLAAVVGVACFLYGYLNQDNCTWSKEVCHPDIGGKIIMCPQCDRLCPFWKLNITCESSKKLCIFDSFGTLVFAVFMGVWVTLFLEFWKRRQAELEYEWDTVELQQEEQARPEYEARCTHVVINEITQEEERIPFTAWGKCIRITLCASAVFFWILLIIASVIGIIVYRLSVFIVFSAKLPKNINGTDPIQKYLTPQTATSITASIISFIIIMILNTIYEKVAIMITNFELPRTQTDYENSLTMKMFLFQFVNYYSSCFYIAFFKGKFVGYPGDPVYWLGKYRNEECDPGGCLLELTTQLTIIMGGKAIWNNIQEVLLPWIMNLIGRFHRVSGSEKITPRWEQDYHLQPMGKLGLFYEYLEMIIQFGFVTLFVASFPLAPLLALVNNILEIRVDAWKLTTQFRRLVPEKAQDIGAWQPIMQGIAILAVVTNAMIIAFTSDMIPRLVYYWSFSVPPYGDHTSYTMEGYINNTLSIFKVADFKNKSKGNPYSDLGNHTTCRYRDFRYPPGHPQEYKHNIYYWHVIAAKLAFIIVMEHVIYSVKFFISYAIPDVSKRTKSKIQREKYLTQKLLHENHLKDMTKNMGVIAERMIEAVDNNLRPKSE
protocol: Lact C2 assay (measuring phosphatidylserine externalization scramblase function)
Type: cell-based
cond: FRT, compound 50 nM; FRT cells expressing human ANO6 (variant 5); ionomycin 10 µM; Lact-C2-GFP fluorescence; average of three tests; read-out: % Inhibition 50 nM

| compoundSmiles | readout | reportedValue |
| --- | --- | --- |
| Fc1ccc(-c2ccc(Nc3cccc(-c4nc5ccc(C(F)(F)F)cc5[nH]4)c3)cc2)nc1 | inhibition at 0.05 µM | > 60% |
| c1cc(Nc2ccc(-c3ccncn3)cc2)cc(-c2nc3ccccc3[nH]2)c1 | inhibition at 0.05 µM | > 60% |
| COc1ccc(-c2ccc(Nc3cccc(-c4nc5ccc(C(F)(F)F)cc5[nH]4)c3)cc2)nn1 | inhibition at 0.05 µM | > 60% |

So, FC(F)(F)c1ccc2nc(-c3cccc(Nc4ccc(-c5ccccn5)cn4)c3)[nH]c2c1 ? Its inhibition at 0.05 µM was > 60%

So, c1cc(Nc2ccc(-c3ccncn3)cn2)cc(-c2nc3ccccc3[nH]2)c1 ? Its inhibition at 0.05 µM was > 60%

So, FC(F)(F)c1cc2[nH]c(-c3cccc(Nc4ccc(-c5ccncn5)cn4)c3)nc2cn1 ? Its inhibition at 0.05 µM was 30 to 60%

So, Fc1cccc(-c2cnc(Nc3cccc(-c4nc5ccc(C(F)(F)F)cc5[nH]4)c3)nc2)n1 ? Its inhibition at 0.05 µM was > 60%

So, FC(F)(F)Oc1ccc2nc(-c3cccc(Nc4ncc(-c5ccccn5)cn4)c3)[nH]c2c1 ? Its inhibition at 0.05 µM was > 60%
